Attribution: patent US7425551B2

- Experimental Target: γ-secretase (Homo sapiens, UniProt P49768)
- Construct: uses a HEK293 membrane fraction as a source of γ-secretase; endogenous in cells
- Procedure Text: in vitro assay of γ-secretase activity (HEK293 membrane fraction, recombinant APP substrate, Abeta ELISA)
- Assay Context: γ-secretase inhibition; HEK293 membrane fraction solubilized in 0.25% CHAPSO, recombinant human APP C-terminal 100 amino acids substrate, Abeta detected by ELISA
Entries and their measured IC50 follow.
Readout Label: IC50 (nM)

>>> assay_value("COCCN1C(=O)[C@@H](NC(=O)C(OC)C(=O)NCC(F)(F)C(F)(F)F)c2ccccc2-c2ccccc21 (stereo partly shown)")
9
>>> assay_value("CC(O)(C(=O)NCCC(F)(F)F)C(=O)N[C@@H]1C(=O)N(CCOCc2ccccc2)c2ccccc2-c2ccccc21 (stereo partly shown)")
2
>>> assay_value("C[C@@](F)(C(=O)NCCC(F)(F)C(F)(F)F)C(=O)N[C@@H]1C(=O)N(CCOCc2ccccc2)c2ccccc2-c2ccccc21")
5
>>> assay_value("COCCN1C(=O)[C@@H](NC(=O)C(C)(C)C(=O)NCC(F)(F)C(F)(F)F)c2ccccc2-c2ccccc21")
5

###

Entries and their measured pIC50 follow.
- Experimental Target: γ-secretase (Homo sapiens)
- Construct: uses a HEK293 membrane fraction as a source of γ-secretase; endogenous in cells
- Procedure Text: in vitro assay of γ-secretase activity (HEK293 membrane fraction, recombinant APP substrate, Abeta ELISA)
- Assay Context: γ-secretase inhibition; HEK293 membrane fraction solubilized in 0.25% CHAPSO, recombinant human APP C-terminal 100 amino acids substrate, Abeta detected by ELISA
- Description: Description of 1γ-Secretase Assay The activity of test compounds can be evaluated in assays which measure the proteolytic cleavage of suitable substrates by γ-secretase activity. […] Cleavage of the fused substrate by γ-secretase will lead to expression of the reporter gene which can be monitored in appropriate assays. […] The amount of produced peptides can be determined with specific ELISA assays. Cell lines of neuronal origin secrete Abeta peptides which can be measured with the specific ELISA assay. […]
pIC50: −log10 of the molar value.
Readout Label: pIC50

>>> assay_value("C[C@@](F)(C(=O)NCC(F)(F)C(F)(F)F)C(=O)N[C@@H]1C(=O)N(CCOCc2ccccc2)c2ccccc2-c2ccccc21 [Example 22]")
8.70
>>> assay_value("O=C(CC(=O)N[C@@H]1C(=O)N(CCO)c2ccccc2-c2ccccc21)NCCC(F)(F)F [Example 30]")
7.12
>>> assay_value("CC(C)OCCN1C(=O)[C@@H](NC(=O)C(C)(C)C(=O)NCC(F)(F)C(F)(F)F)c2ccccc2-c2ccccc21 [Example 70]")
8.15
>>> assay_value("C[C@H](OC(=O)NCCC(F)(F)C(F)(F)F)C(=O)N[C@@H]1C(=O)N(CCOCc2ccccc2)c2ccccc2-c2ccccc21 [Example 36]")
7.89
>>> assay_value("COCCN1C(=O)[C@@H](NC(=O)[C@H](C)OC(=O)NCC(F)(F)C(F)(F)F)c2ccccc2-c2ccccc21 [Example 25]")
8.22
>>> assay_value("C[C@H](OC(=O)NCCC(F)(F)C(F)(F)F)C(=O)N[C@@H]1C(=O)N(CCO)c2ccccc2-c2ccccc21 [Example 38]")
7.92
>>> assay_value("CC(O)(C(=O)NCC(F)(F)C(F)(F)F)C(=O)N[C@@H]1C(=O)N(CCO)c2ccccc2-c2ccccc21 (single isomer, unassigned; epimer b) [Example 21]")
9.00
>>> assay_value("C[C@](F)(C(=O)NCCC(F)(F)C(F)(F)F)C(=O)N[C@@H]1C(=O)N(CCOCc2ccccc2)c2ccccc2-c2ccccc21 [Example 44]")
8.05
>>> assay_value("C[C@@](F)(C(=O)NCCC(F)(F)F)C(=O)N[C@@H]1C(=O)N(CCOCc2ccccc2)c2ccccc2-c2ccccc21 [Example 51]")
8.15
>>> assay_value("O=C(CC(=O)N[C@@H]1C(=O)N(CCO)c2ccccc2-c2ccccc21)NCCC(F)(F)C(F)(F)F [Example 31]")
6.70
>>> assay_value("C[C@@](F)(C(=O)NCCC(F)(F)C(F)(F)F)C(=O)N[C@@H]1C(=O)N(CCO)c2ccccc2-c2ccccc21 [Example 42]")
9.00
>>> assay_value("CC(C)(C(=O)NCC(F)(F)C(F)(F)F)C(=O)N[C@@H]1C(=O)N(CC(O)C(F)(F)F)c2ccccc2-c2ccccc21 (stereo partly shown) [Example 72]")
9.00
>>> assay_value("C[C@H](OC(=O)NCC(F)(F)F)C(=O)N[C@@H]1C(=O)N(CCO)c2ccccc2-c2ccccc21 [Example 48]")
7.85

###

- Experimental Target: γ-secretase (Homo sapiens, UniProt P49768)
- Construct: uses a HEK293 membrane fraction as a source of γ-secretase; endogenous in cells
- Procedure Text: in vitro assay of γ-secretase activity (HEK293 membrane fraction, recombinant APP substrate, Abeta ELISA)
- Assay Context: γ-secretase inhibition; HEK293 membrane fraction solubilized in 0.25% CHAPSO, recombinant human APP C-terminal 100 amino acids substrate, Abeta detected by ELISA
Entries and their measured IC50 follow.
Readout Label: IC50 (nM)

>>> assay_value("CC(O)(C(=O)NCC(F)(F)C(F)(F)F)C(=O)N[C@@H]1C(=O)N(CCOCc2ccccc2)c2ccccc2-c2ccccc21 (stereo partly drawn)")
10
>>> assay_value("CC(O)(C(=O)NCCC(F)(F)F)C(=O)N[C@@H]1C(=O)N(CCO)c2ccccc2-c2ccccc21 (single isomer, unassigned; epimer b) [Example 66]")
1
>>> assay_value("C[C@H](OC(=O)NCC(F)(F)F)C(=O)N[C@@H]1C(=O)N(CCOCc2ccccc2)c2ccccc2-c2ccccc21")
18
>>> assay_value("C[C@](F)(C(=O)NCC(F)(F)C(F)(F)F)C(=O)N[C@@H]1C(=O)N(CCO)c2ccccc2-c2ccccc21")
4
>>> assay_value("C[C@@](F)(C(=O)NCC(F)(F)F)C(=O)N[C@@H]1C(=O)N(CCO)c2ccccc2-c2ccccc21")
9
>>> assay_value("C[C@](F)(C(=O)NCCC(F)(F)C(F)(F)F)C(=O)N[C@@H]1C(=O)N(CCO)c2ccccc2-c2ccccc21")
16

###

- Experimental Target: γ-secretase (Homo sapiens)
- Construct: uses a HEK293 membrane fraction as a source of γ-secretase; endogenous in cells
- Procedure Text: in vitro assay of γ-secretase activity (HEK293 membrane fraction, recombinant APP substrate, Abeta ELISA)
- Assay Context: γ-secretase inhibition; HEK293 membrane fraction solubilized in 0.25% CHAPSO, recombinant human APP C-terminal 100 amino acids substrate, Abeta detected by ELISA
Entries and their measured IC50 follow.
Readout Label: IC50 (nM)

>>> assay_value("C[C@@](O)(C(=O)NCC(F)(F)F)C(=O)N[C@@H]1C(=O)N(CCO)c2ccccc2-c2ccccc21")
190
>>> assay_value("CC(O)(C(=O)NCC(F)(F)C(F)(F)F)C(=O)N[C@@H]1C(=O)N(CCO)c2ccccc2-c2ccccc21 (single isomer, unassigned; epimer a) [Example 20]")
3
>>> assay_value("CC(O)(C(=O)NCCC(F)(F)C(F)(F)F)C(=O)N[C@@H]1C(=O)N(CCOCc2ccccc2)c2ccccc2-c2ccccc21 (stereo partly shown)")
12
>>> assay_value("CC(C)(C(=O)NCC(F)(F)C(F)(F)F)C(=O)N[C@@H]1C(=O)N(CCOCc2ccccc2)c2ccccc2-c2ccccc21")
9
>>> assay_value("COCCN1C(=O)[C@@H](NC(=O)[C@](C)(F)C(=O)NCC(F)(F)C(F)(F)F)c2ccccc2-c2ccccc21")
4
>>> assay_value("CC(F)(C(=O)NCC(F)(F)C(F)(F)F)C(=O)N[C@@H]1C(=O)N(CCOCc2ccccc2)c2ccccc2-c2ccccc21 (stereo partly shown)")
10
>>> assay_value("COCCN1C(=O)[C@@H](NC(=O)C(C)(O)C(=O)NCC(F)(F)C(F)(F)F)c2ccccc2-c2ccccc21 (single isomer, unassigned; epimer a) [Example 45]")
9
>>> assay_value("CC(F)(C(=O)NCC(F)(F)C(F)(F)F)C(=O)N[C@@H]1C(=O)N(CCO)c2ccccc2-c2ccccc21 (stereo partly shown)")
3
>>> assay_value("C[C@](F)(C(=O)NCC(F)(F)C(F)(F)F)C(=O)N[C@@H]1C(=O)N(CCOCc2ccccc2)c2ccccc2-c2ccccc21")
16
>>> assay_value("CC(C(=O)NCC(F)(F)C(F)(F)F)C(=O)N[C@@H]1C(=O)N(CCOCc2ccccc2)c2ccccc2-c2ccccc21 (stereo partly shown)")
6
>>> assay_value("C[C@](F)(C(=O)NCC(F)(F)F)C(=O)N[C@@H]1C(=O)N(CCOCc2ccccc2)c2ccccc2-c2ccccc21")
13
>>> assay_value("COC(C(=O)NCC(F)(F)C(F)(F)F)C(=O)N[C@@H]1C(=O)N(CCO)c2ccccc2-c2ccccc21 (stereo partly shown)")
7
>>> assay_value("C[C@H](OC(=O)NCC(F)(F)C(F)(F)F)C(=O)N[C@@H]1C(=O)N(CCO)c2ccccc2-c2ccccc21")
6
